Listed here: items and their measured max response.
test: qHTS RealTime-Glo MT Cell Viability Assay in HEK293 cells - 40 hour (AID 1224874); conditions: RealTime-Glo luminescence; stronger effect = lower value; note: % is set by controls: 0 for no effect and ±100 for the full control effect; nearly all actives have a fitted effect of over 50% in size
Records with an inconclusive call do not appear. Activity calls are given as the source filed them. Calls come from the whole dose curve; as a rule, active = well fitted cell-killing curve with a large enough effect in the repeat runs; inconclusive = weak or mixed curves, or effect the other way; inactive = flat fitted curve, though single readings scatter.

Take a look at these entries with their results.
>>> df
             smilesstructure  recordedmeasurement
0               CN1CCN(C)CC1     7.77% (inactive)
1  Nc1cc([N+](=O)[O-])ccc1Cl    0.705% (inactive)

--- query ---
Input line: Consider the compound Cc1ccc(Cl)c(N)c1Cl and give its measured max response.
Output line: -1.11% (inactive)

---

experiment: qHTS assay to identify small molecule antagonists of the thyroid receptor (TR) signaling pathway (AID 743065); conditions: GH3.TRE-Luc, T3-stimulated luciferase inhibition, 23.5 h; series mostly up to 70.3 µM; note: nearly all actives have a fitted effect of over 55% in size
Results filed as inconclusive are left out. Calls of active or inactive are those of the source. Calls come from the whole dose curve; as a rule, active = well fitted inhibition curve with a large enough effect in the repeat runs; inconclusive = weak or mixed curves; inactive = no such curve, though single readings can be large or run the other way.
Respond only with the outcome that fits, drawn from active, inactive

Solved cases (3 shown):
smilesStructure	assignedClass
O=C1CCC(c2ccc(-n3ccnc3)cc2)=NN1	inactive
CC[C@@H](C(=O)[C@@H](C)[C@@H](O)[C@H](C)CCc1ccc(C)c(O)c1C(=O)O)[C@H]1O[C@](CC)([C@H]2CC[C@](O)(CC)[C@H](C)O2)C[C@@H]1C	active
Nc1nc(/C(=C/CC(=O)O)C(=O)N[C@@H]2C(=O)N3C(C(=O)O)=CCS[C@H]23)cs1	inactive

Input line: Assay result, entry CO[C@H]1C[C@H](O[C@H]2[C@H](C)[C@@H](O[C@@H]3O[C@H](C)C[C@H](N(C)C)[C@H]3O)[C@@H](C)C[C@]3(CO3)C(=O)[C@H](C)[C@@H](O)[C@@H](C)[C@@H](C)OC(=O)[C@@H]2C)O[C@@H](C)[C@@H]1O — outcome?
Output line: inactive

Input line: Assay result, entry C=C(Nc1ccc(OCC)cc1)Nc1ccc(OCC)cc1 — outcome?
Output line: inactive

Input line: Assay result, entry NCCO/C=C/[C@H](N)C(=O)O — outcome?
Output line: inactive

Input line: Assay result, entry COc1cc2c(c(OC)c1OC)-c1c(cc3c(c1OC)OCO3)C[C@@H](C)[C@](C)(O)C2 — outcome?
Output line: inactive

---

assay: qHTS assay for small molecule disruptors of the mitochondrial membrane potential (AID 720635); conditions: HepG2 mitochondrial membrane potential, Mito-MPS dye ratio; series mostly up to 83.2 µM
Records with an inconclusive call do not appear. Active and inactive are the calls of the source. The call rests on the fitted dose curve; in most records, active means well fitted inhibition curve with a large enough effect in the signal ratio in the repeat runs; inconclusive means weak or mixed curves, or effect the other way; inactive means flat fitted curve, though single readings scatter; the % refers to the signal ratio. Non-standard residues stand in square brackets, D forms with d. Residues, ends and D or L forms follow the SMILES beside them. Orn = NCCC[C@H](N)C(=O)O
Respond only with the outcome that fits, drawn from 1 = active, 0 = inactive

Solved cases (2 shown):
compound	assignedClass
CC(=O)OCC1=C(C(=O)O)N2C(=O)[C@@H](NC(=O)Cc3ccccc3)[C@H]2SC1	0
Cc1cc(N)c2ccccc2[n+]1CCCCCCCCCC[n+]1c(C)cc(N)c2ccccc21	0

Input line: Assay result, entry COc1c(O)cc2c(c1O)[C@@H]1O[C@H](CO)[C@@H](O)[C@H](O)[C@H]1OC2=O — outcome?
Output line: 0

Input line: Assay result, entry CC(C)C[C@@H]1NC(=O)[C@H](CCCN)NC(=O)[C@H](C(C)C)NC(=O)[C@@H]2CCCN2C(=O)[C@@H](Cc2ccccc2)NC(=O)[C@H](CC(C)C)NC(=O)[C@H](CCCN)NC(=O)[C@H](C(C)C)NC(=O)[C@@H]2CCCN2C(=O)[C@@H](Cc2ccccc2)NC1=O (cyclo(V[Orn]L[dF]PV[Orn]L[dF]P)) — outcome?
Output line: 1

---

test: qHTS assay to test for compound auto fluorescence at 460 nm (blue) in HEK293 cells (AID 720678); conditions: blue autofluorescence 405/460 nm; series mostly up to 46 µM
Calls of active or inactive are those of the source. Calls follow the shape of the dose curve; as a rule, active = well fitted curve in the direction sought with a large enough effect in the repeat runs; inconclusive = weak or mixed curves; inactive = flat fitted curve, though single readings scatter.
Respond only with the outcome that fits, drawn from active, inactive

molecule	assignedClass
Cc1cccc(C)c1NC(=O)C1CCCCN1C (configuration not stated)	inactive
O=c1[nH]c(=O)n([C@H]2C[C@H](O)[C@@H](CO)O2)cc1/C=C/Br	inactive
Cc1cn([C@H]2C[C@H](O)[C@@H](CO)O2)c(=O)[nH]c1=O	inactive
O=C(CCCN1CCN2CCCC2C1)c1ccc(F)cc1 (configuration not stated)	inactive
CCC1OC(=O)C[C@@H](O)[C@H](C)[C@@H](O[C@@H]2O[C@H](C)C[C@H](N(C)C)[C@H]2O)[C@@H](CC=O)C[C@@H](C)C(=O)/C=C/[C@]2(C)OC2C1C (some centres not stated)	inactive
CCCOC(=O)c1ccc(O)cc1	inactive
CC1(C)C[C@@H]1C(=O)N/C(=C\CCCCSC[C@H](N)C(=O)O)C(=O)O	inactive
CC(=O)Oc1cc(C(F)(F)F)ccc1C(=O)O	inactive
COc1cccc2c1[C@@H]1CN(CCCCn3c(=O)[nH]c4c(sc5ncc(-c6ccccc6)nc54)c3=O)C[C@@H]1CO2	inactive
CC(=O)OCC(=O)[C@@]1(O)CC[C@H]2[C@@H]3CCC4=CC(=O)CC[C@]4(C)C3=CC[C@@]21C	inactive

Input line: Assay result, entry COC(=O)C[C@](O)(CCCC(C)(C)O)C(=O)O[C@@H]1C(OC)=CC23CCCN2CCc2cc4c(cc2[C@H]13)OCO4 (some centres not stated) — outcome?
Output line: inactive

Input line: Assay result, entry Cc1cc(N)c2ccccc2[n+]1CCCCCCCCCC[n+]1c(C)cc(N)c2ccccc21 — outcome?
Output line: inactive

Input line: Assay result, entry CCCCCCCC/C=C\CCCCCCCC(=O)N(CCO)CCO — outcome?
Output line: inactive

Input line: Assay result, entry CN1CC[C@H](c2c(O)cc(O)c3c(=O)cc(-c4ccccc4Cl)oc23)[C@H](O)C1 — outcome?
Output line: inactive

Input line: Assay result, entry CC1CCCCN1CCCOC(=O)c1ccccc1 (configuration not stated) — outcome?
Output line: inactive

Input line: Assay result, entry CCCCCCCCCCCC[n+]1ccc2ccccc2c1 — outcome?
Output line: inactive

Input line: Assay result, entry CC(C)=CCC/C(C)=C/CC/C(C)=C/CC/C(C)=C/CC1=C(C)C(=O)c2ccccc2C1=O — outcome?
Output line: inactive

Input line: Assay result, entry CC1=C(/C=C/C(C)=C/C=C/C(C)=C\C(=O)O)C(C)(C)CCC1 — outcome?
Output line: inactive

Input line: Assay result, entry O=C1c2ccccc2-c2n[nH]c3cccc1c23 — outcome?
Output line: active

Input line: Assay result, entry N=C(N)n1cccn1 — outcome?
Output line: inactive

Input line: Assay result, entry CCOC(=O)COc1ccc2c(=O)cc(-c3ccccc3)oc2c1 — outcome?
Output line: inactive

Input line: Assay result, entry C=CCN1C(=O)C(CC(C)C)NC1=S (configuration not stated) — outcome?
Output line: inactive

Input line: Assay result, entry NC(=O)CC[C@@H]1NC(=O)[C@H](Cc2ccccc2)NC(=O)[C@H](Cc2ccc(O)cc2)NC(=O)[C@@H](N)CSSC[C@@H](C(=O)N2CCC[C@H]2C(=O)N[C@@H](CCCN=C(N)N)C(=O)NCC(N)=O)NC(=O)[C@H](CC(N)=O)NC1=O — outcome?
Output line: inactive

---

molecular target: Luciferin 4-monooxygenase (Photinus pyralis); test: qHTS assay to identify small molecule inhibitors of firefly luciferase (AID 1224835); note: nearly all actives have a fitted effect of over 25% in size; note: potency is the fitted concentration of half-maximal effect; details: purified P. pyralis luciferase, luminescence inhibition; series mostly up to 115 µM
Inconclusive results are not listed. The source made the active and inactive calls. The call rests on the fitted dose curve; in most records, active means well fitted inhibition curve with a large enough effect in the repeat runs; inconclusive means weak or mixed curves; inactive means flat fitted curve, though single readings scatter.
reportedEndpoint: Potency

>>> df
                                   compound                               studysystem  reportedendpoint  recordedmeasurement
0                          Oc1ccc2c(c1)CCC2  Luciferin 4-monooxygenase (Photinus pyralis)           Potency             inactive
1  COc1cc(/C=C/C(=O)CC(=O)/C=C/c2ccc(O)c(OC)c2)ccc1O  Luciferin 4-monooxygenase (Photinus pyralis)           Potency     28.4 µM (active)
2                      CCCOC(=O)c1ccc(O)cc1  Luciferin 4-monooxygenase (Photinus pyralis)           Potency     89.4 µM (active)
3               CSc1nnc(C(C)(C)C)c(=O)[nH]1  Luciferin 4-monooxygenase (Photinus pyralis)           Potency             inactive

Input line: Consider the compound NCc1cccc(C2CCN(C(=O)c3ccc(C#Cc4ccccc4F)o3)CC2)c1 and give its measured Potency.
Output line: inactive

Input line: Consider the compound CC1CCC(C(C)(C)O)CC1 (stereo unspecified) and give its measured Potency.
Output line: inactive

Input line: Consider the compound c1ccc2occc2c1 and give its measured Potency.
Output line: inactive

Input line: Consider the compound CCCCC/C=C\C=C\C(=O)OCC and give its measured Potency.
Output line: inactive

Input line: Consider the compound c1ccc2c(c1)-c1ccc3ccc4cccc5cc-2c1c3c45 and give its measured Potency.
Output line: 11 µM (active)

Input line: Consider the compound c1ccc(-c2nc3ccccc3[nH]2)cc1 and give its measured Potency.
Output line: 5.64 µM (active)

These data points were gathered from PubChem BioAssay (Tox21).
